- Test system: NCI-H23 lung
- assay-notes: NCI tumour cell line growth inhibition, 48 h
Would you kindly list TGI for each of these compounds?
Answers are plain numbers, in µM.

Some solved entries appear below for comparison.
compound	target	value-unit	observed
O=C1CCC(N2C(=O)c3ccccc3C2=O)C(=O)N1CO (stereo not drawn)	NCI-H23 lung	µM	94.6
Cc1ccc(-c2nc3nc(-c4ccccc4)nc(N4CCCNCC4)c3o2)cc1	NCI-H23 lung	µM	3.8

Continue with the compound presented below.
Query block: Any idea what TGI was measured for COc1ccc2nc3c(C(=O)NCCN(C)C)cccc3nc2c1 ?
Result block: 24.7

---

Can you tell me TGI for the items I'm about to list?
- Tested on: NCI-H23 lung
- assay-notes: NCI tumour cell line growth inhibition, 48 h

molecule	target	observed
CC(C)(CO)N1CCN(C(=S)Nc2ccccc2)CC1	NCI-H23 lung	> 100 µM
CCOCC(=O)N[C@H]1CCc2cc(OC)c(OC)c(OC)c2-c2ccc(OC)c(=O)cc21	NCI-H23 lung	0.178 µM
O=C(NC12CC3CC(CC(F)(C3)C1)C2)c1ccccc1	NCI-H23 lung	> 100 µM

For every item below, please supply its TGI.
1. COC(=O)c1cc2c(cc1CC1Cc3cc4c(cc3C1=O)CCC4)CCC2 (stereo not given)
2. O=C(O)c1ccccc1/C=N/NC1=NCCN1
3. C#CCNC(=O)c1cccc2c1cc(C)n2-c1nc2c(c(NCc3ccccc3)n1)CCCC2

Result block:
> 100 µM
> 100 µM
0.0563 µM

# per-item lookup of TGI; items listed below
1. CC(C)(C)C(=O)OCOP(=O)(OCOC(=O)C(C)(C)C)OCC1OC(n2ccc(=O)[nH]c2=O)C(N=[N+]=[N-])C1O (stereo not given)
2. CC(CCC(=O)O)(c1ccc(O)cc1)c1ccc(O)cc1
3. COC(=O)Nc1nc2ccc(Oc3ccc(NC(=O)Nc4cc(C(F)(F)F)ccc4F)cc3)cc2s1
4. CC(=O)Oc1cc(Cl)c(C)c2c1[C@H]1CC[C@]3(C)[C@@H](OC(C)=O)CC[C@H]3[C@@H]1CC2

Result block:
1. 16.3 µM
2. > 100 µM
3. > 25 µM
4. > 100 µM

---

- System: OVCAR-3 ovarian
- assay-notes: NCI tumour cell line growth inhibition, 48 h
Would you kindly list TGI for each of these compounds?

The following compounds have reported results that may help.
compound	TGI
NC(=O)NS(=O)(=O)c1ccc(N2N=C(C(F)(F)F)CC2c2cc(C(F)(F)F)cc(C(F)(F)F)c2)cc1 (stereo not given)	4.12 µM
Cc1cc(-c2cnn3c(NCC4CC(C)(O)C4)cc(Oc4cccnc4)nc23)ccc1C(=O)NC1CC1 (stereo not given)	> 100 µM
C[N+](C)(C)CCCSc1nc2ccccc2[nH]1	> 100 µM

Respectfully, I request TGI for each entry included below.
1. COc1ccc2c(c1)C(=O)Cc1ccccc1CC2
2. COc1ccc(CC2CCc3nc(N)nc(N)c3C2)cc1OC (stereo not given)

Result block:
1. > 100 µM
2. > 100 µM

---

- Test system: SF-539 CNS
- assay-notes: NCI tumour cell line growth inhibition, 48 h
Kindly state TGI for each of the entries shown.

compound	observed
Cc1ccc(NC(=O)CC(=O)n2nc(C)c(N=Nc3ccccc3C(=O)O)c2C)cc1	> 100 µM
Ic1ccc2c(c1)N(c1ccccc1)c1cc(N=c3ccc4nc5ccc(I)cc5n(-c5ccccc5)c-4c3)ccc1N2	> 100 µM
CN(CCC(=O)O)C1=Nc2ccc(Cl)cc2C(c2ccccc2)=[N+]([O-])C1	> 100 µM
CN(C)c1ccc(/C=C2/NC(=S)NC2=O)cc1	> 100 µM
CCCCCCCC(=O)OCC/C=C/C1OC1C1OC(=O)/C=C\C=C\c2nc(oc2C)/C=C(/C)CCC2OC2C1OC(=O)NC(C)=O (centres undefined)	0.0819 µM

Answer for every listed entry: what is its TGI? The entries follow.
1. Cc1nc(-c2cc3c(ccc4ccccc43)oc2=O)cs1
2. CCOC(=O)c1c(NC(=O)c2cccs2)sc2c1CCC2
3. COC(=O)CC(c1cn(S(=O)(=O)c2ccc(C)cc2)c2ccccc12)C1C[C@@H](C(=O)OC)N(C(=O)OC(C)(C)C)C1=O (some centres undefined)

Result block:
1. > 100 µM
2. > 100 µM
3. 65.6 µM

Query block: Can you share its TGI? I mean this compound: CN1CCN(c2ccc3[nH]c(-c4cc(O)c5c(nc(CO)n5C)c4O)nc3n2)CC1
Result block: 44 µM
